The values you see were collected from PubChem BioAssay AID248.

Test system: L1210 leukemia ip in BDF1 mice, survival T/C
Assay: NCI In Vivo Anticancer Drug Screen. Data for tumor model L1210 Leukemia (intraperitoneal) in B6D2F1 (BDF1) mice
Settings: endpoint: mean survival time; dose: 50.0 mg/kg/injection; schedule: Q01DX009 (ip); vehicle: saline; higher = longer survival
Toxic doses and inconclusive results are not listed.
Recorded T/C, one value per entry.

Molecule	Assayed Target	T/C
O=CNc1cc2c3c(c1)CCCN3CCC2	L1210 leukemia ip in BDF1 mice, survival T/C	106 % of control
CC(N)C(O)c1cccc(O)c1 (configuration not stated)	L1210 leukemia ip in BDF1 mice, survival T/C	100 % of control
CC1(C)N=C(N)N=C(N)N1c1ccccc1F	L1210 leukemia ip in BDF1 mice, survival T/C	91 % of control
CC1CCN(C(=S)[S-])CC1.CC1CCN(C(=S)[S-])CC1.[Zn]	L1210 leukemia ip in BDF1 mice, survival T/C	100 % of control
CC(C)(O)C[N+](=O)[O-]	L1210 leukemia ip in BDF1 mice, survival T/C	88 % of control
CC1(C)N=C(N)N=C(N)N1c1cccc(CC(=O)Nc2ccccc2)c1	L1210 leukemia ip in BDF1 mice, survival T/C	102 % of control
C[N+](C)(C)Cc1cccc([N+](=O)[O-])c1	L1210 leukemia ip in BDF1 mice, survival T/C	93 % of control

* * *

Test system: L1210 leukemia ip in BDF1 mice, survival T/C
Assay: NCI In Vivo Anticancer Drug Screen. Data for tumor model L1210 Leukemia (intraperitoneal) in B6D2F1 (BDF1) mice
Details: endpoint: mean survival time; dose: 200.0 mg/kg/injection; schedule: Q01DX009 (ip); vehicle: saline with Tween-80; higher = longer survival
Toxic doses and inconclusive results are not listed.
// T/C lookup, one value per entry

Compound	T/C
O=C(/C=C/c1ccc(O)cc1)c1ccccc1	108 % of control
Cc1cc(C)c(OS(=O)(=O)c2ccc([N+](=O)[O-])cc2)c(C)c1	87 % of control
O=C(Oc1ccc(Cl)cc1Cl)c1ccccc1	110 % of control
CC1CC(=O)NN1 (configuration not stated)	90 % of control
O=C1CCCCC/C1=C1\C(=O)Nc2ccc(Br)cc21	100 % of control
CC1(O)c2cccc3c2C2(O)c4c1cccc4C(C)(O)c1cccc(c12)C3(C)O (configuration not stated)	105 % of control
OCCOc1cc(Cl)c(Cl)cc1Cl	87 % of control
CC(=O)Nc1cccc2c1C(=O)OC2=O	89 % of control
CCCCOP(OCCCC)Oc1ccccc1	100 % of control
O=C(O)c1ccccc1S(=O)(=O)c1ccccc1	101 % of control
O=C(CC(O)(C(F)(F)F)C(F)(F)F)c1c2ccccc2cc2ccccc12	109 % of control
CC1(Cc2ccccc2)CCC(=O)O1 (configuration not stated)	100 % of control

* * *

Tested on: L1210 leukemia ip in BDF1 mice, survival T/C
Assay: NCI In Vivo Anticancer Drug Screen. Data for tumor model L1210 Leukemia (intraperitoneal) in B6D2F1 (BDF1) mice
Details: endpoint: mean survival time; dose: 100.0 mg/kg/injection; schedule: Q01DX009 (ip); vehicle: Klucel (hydroxypropylcellulose) (HPC); higher = longer survival
Inconclusive results and toxic doses are left out.
Measured Metric: T/C

Compound	Measured Metric	Observed
O=C(NCN1C(=O)c2ccccc2C1=O)NCN1C(=O)c2ccccc2C1=O	T/C	95 % of control
O=C(Oc1ccccc1Cl)c1ccc(Cl)cc1Cl	T/C	91 % of control
N#Cc1ccc2c(c1)Nc1ccccc1S2	T/C	101 % of control
CC(C)c1cc[n+](/C(C(=S)Nc2cccc(Cl)c2)=C(/[O-])c2ccc([N+](=O)[O-])cc2)cc1	T/C	105 % of control
COC(=O)C1C(C(=O)OC)C2(Cl)C(Cl)=C(Cl)C1(Cl)C2(Br)Br (stereo unspecified)	T/C	104 % of control
c1ccc(CN=C(c2ccccc2)c2ccccc2)cc1	T/C	101 % of control

* * *

Tested on: L1210 leukemia ip in BDF1 mice, survival T/C
Experiment: NCI In Vivo Anticancer Drug Screen. Data for tumor model L1210 Leukemia (intraperitoneal) in B6D2F1 (BDF1) mice
Conditions: endpoint: mean survival time; dose: 100.0 mg/kg/injection; schedule: Q04DX003 (ip); vehicle: saline; higher = longer survival
Inconclusive results and toxic doses are left out.

Molecule	Assayed Target	T/C
CC(C)(C)c1cc(CN2CCCC(O)C2)c(O)c(-c2ccccc2)c1 (configuration not stated)	L1210 leukemia ip in BDF1 mice, survival T/C	98 % of control
COc1ccc(-c2cc(C(=O)O)c3cccc(C(F)(F)F)c3n2)cc1	L1210 leukemia ip in BDF1 mice, survival T/C	90 % of control
CCOC1CC2c3ccccc3C1c1cccc[n+]12 (configuration not stated)	L1210 leukemia ip in BDF1 mice, survival T/C	98 % of control
O=C(O)C1CCCC2C(O)CCC(O)C12 (configuration not stated)	L1210 leukemia ip in BDF1 mice, survival T/C	105 % of control
CN(C)C1C(=O)C(C(=O)NCNC(CCS(C)=O)C(=O)O)=C(O)C2(O)C(=O)C3=C(O)c4c(O)cccc4C(C)(O)C3CC12 (configuration not stated)	L1210 leukemia ip in BDF1 mice, survival T/C	95 % of control
c1ccc(C2=C(c3ccccc3)c3cccc4cccc2c34)cc1	L1210 leukemia ip in BDF1 mice, survival T/C	94 % of control
C[CH2][Ge]1([CH2]C)[CH2]CC2(CCN(CCCN(C)C)C2)C[CH2]1	L1210 leukemia ip in BDF1 mice, survival T/C	95 % of control

* * *

Tested on: L1210 leukemia ip in BDF1 mice, survival T/C
Experiment: NCI In Vivo Anticancer Drug Screen. Data for tumor model L1210 Leukemia (intraperitoneal) in B6D2F1 (BDF1) mice
Conditions: endpoint: mean survival time; dose: 6.25 mg/kg/injection; schedule: Q01DX009 (ip); vehicle: saline with Tween-80; higher = longer survival
Toxic doses and inconclusive results are not listed.
Item-by-item account of T/C

Chemical String	T/C
N#C/C(=C\c1ccc(-c2ccccc2)cc1)c1ccc(Cl)cc1	92 % of control
c1cc[c]([Sn]([c]2ccccc2)([c]2ccccc2)[n]2cccc2)cc1	102 % of control
c1ccc(CC(Cc2ccccc2)NC2=NCCO2)cc1	106 % of control
NC(=S)N/N=C/c1cc(-c2cccc(N)c2)ccn1	112 % of control
Fc1c(F)c(F)[c]([Sn]([c]2ccccc2)([c]2ccccc2)[c]2ccccc2)c(F)c1F	92 % of control

* * *

System: L1210 leukemia ip in BDF1 mice, survival T/C
Experiment: NCI In Vivo Anticancer Drug Screen. Data for tumor model L1210 Leukemia (intraperitoneal) in B6D2F1 (BDF1) mice
Conditions: endpoint: mean survival time; dose: 200.0 mg/kg/injection; schedule: Q01DX001 (ip); vehicle: saline with Tween-80; higher = longer survival
Toxic doses and inconclusive results are not listed.
List of T/C values.

Compound	T/C
CC1=NN(c2ccccc2)C(=O)C1	101 % of control
CC1(C)C2CCC(O)C1C2 (stereo unspecified)	97 % of control
CN(C)/N=N\c1nc[nH]c1C(=O)N1CCCC1	105 % of control
CCOC(=S)c1cccc(S(=O)(=O)Nc2ccc(OCC)cc2)c1	105 % of control
O=C1OC2CCCC1C2 (stereo unspecified)	100 % of control
CC1(c2ccccc2)OCCCO1	98 % of control
C=C(C)CNC(=O)Oc1cccc(NC(=O)OC)c1	95 % of control
O=C1N(c2ccccc2)C(c2ccccc2)SC1(Cc1ccc(Br)cc1)c1ccccc1 (stereo unspecified)	98 % of control
COC(=O)c1ccc(N(C)CC2=Nc3c(nc(N)nc3SCc3ccccc3)NC2)cc1	108 % of control
CNC(=O)C(c1ccccc1)C(F)(F)F (stereo unspecified)	109 % of control
CCOc1cc(S(N)(=O)=O)ccc1Cl	93 % of control
CCOC(=O)CCSc1ccc(NC(C)=O)cc1	111 % of control
Nc1cccc(CCCCc2ccccc2)c1	100 % of control
COc1ccc(C2NC(=O)CCC2N)cc1OC (stereo unspecified)	101 % of control
NNc1nncc(=O)[nH]1	103 % of control
Nc1cccc(CNc2ccc(C(=O)O)cc2)c1	103 % of control

* * *

System: L1210 leukemia ip in BDF1 mice, survival T/C
Test: NCI In Vivo Anticancer Drug Screen. Data for tumor model L1210 Leukemia (intraperitoneal) in B6D2F1 (BDF1) mice
Conditions: endpoint: mean survival time; dose: 50.0 mg/kg/injection; schedule: Q01DX001 (ip); vehicle: saline; higher = longer survival
Inconclusive results and toxic doses are left out.
The compounds listed here are annotated with their T/C.

Compound	Assayed Target	T/C
CC(=O)c1ccccc1OB(F)F	L1210 leukemia ip in BDF1 mice, survival T/C	98 % of control
Cc1ccc(S(=O)(=O)OCCCN(CCCOS(=O)(=O)c2ccc(C)cc2)c2ccccc2)cc1	L1210 leukemia ip in BDF1 mice, survival T/C	101 % of control
CCCCCCCCCCCCCCCCC/C=N/Nc1nnc(N/N=C/CCCCCCCCCCCCCCCCC)c2ccccc12	L1210 leukemia ip in BDF1 mice, survival T/C	95 % of control
CCOC(=O)c1c[nH]c2nc(N)ccc2c1=O	L1210 leukemia ip in BDF1 mice, survival T/C	104 % of control
CN(C)CCCN1CCC2(CCCC(C(F)(F)F)C2)CC1 (configuration not stated)	L1210 leukemia ip in BDF1 mice, survival T/C	104 % of control
CNc1cc(Cl)ncn1	L1210 leukemia ip in BDF1 mice, survival T/C	90 % of control
[O]=[V]([OH])([OH])[OH]	L1210 leukemia ip in BDF1 mice, survival T/C	98 % of control
O=[N+]([O-])c1ccc(N/N=C/CCc2ccccc2O)c([N+](=O)[O-])c1	L1210 leukemia ip in BDF1 mice, survival T/C	112 % of control
NCCCc1c(-c2ccccc2)nc(N)[nH]c1=O	L1210 leukemia ip in BDF1 mice, survival T/C	108 % of control
C[n+]1c(/C=C/c2ccc3cccc(O)c3n2)ccc2cccc(O)c21	L1210 leukemia ip in BDF1 mice, survival T/C	102 % of control
CC(=O)Nc1ccc(/C=N\NC(=O)CCCC(=O)N/N=C/c2ccc(NC(C)=O)cc2)cc1	L1210 leukemia ip in BDF1 mice, survival T/C	104 % of control
COc1cc(C)n2nnnc2n1	L1210 leukemia ip in BDF1 mice, survival T/C	96 % of control
